- assay_system: T1, human claudin 6 (CLDN6) (human, UniProt P56747 1-220)
- T1 construct: also called human CLDN6; hCLDN6
- T1 sequence: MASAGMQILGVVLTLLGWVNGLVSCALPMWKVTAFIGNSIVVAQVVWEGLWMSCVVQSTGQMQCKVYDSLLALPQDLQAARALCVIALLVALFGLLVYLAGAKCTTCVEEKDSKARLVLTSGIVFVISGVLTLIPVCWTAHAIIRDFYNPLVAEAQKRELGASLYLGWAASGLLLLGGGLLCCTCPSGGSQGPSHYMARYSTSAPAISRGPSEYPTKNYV
- experiment_description: flow cytometry, HEK293T-human CLDN6 cells; ratio to chBG87P

binder | Emax ratio to BG87P
BG87P-Bz4 (antibody, V domains shown, also called BG87P-B24) VH: QIQLVQSGAEVKKPGASVKVSCKASGYSFTDYHINWVRQAPGQRLEWMGWIYPGSGYTKYNEKFKVRVTLTRDTSASTAYMELSSLRSEDTAVYFCARSGIYHYVSSYYFDHWGKGTTVTVSS VL: DIQMTQSPSTLSASVGDRVTITCKASQDVGTAVAWYQQKPGKSPKLLIYWASTRHTGVPSRFSGSGSGTEFTLTISSVQPDDFATYFCQQYSSYTFGGGTKVEIK | 0.57
BG87P-27 (antibody, V domains shown) VH: QVQLVQSGAEVKKPGASVKVSCKASGYSFTDYHINWVRQAPGQRLEWMGWIYPGSGYTKYNEKFKGRVTLTRDTSASTAYMELSSLRSEDTAVYFCARSGIYHYVSSYYFDHWGKGTTVTVSS VL: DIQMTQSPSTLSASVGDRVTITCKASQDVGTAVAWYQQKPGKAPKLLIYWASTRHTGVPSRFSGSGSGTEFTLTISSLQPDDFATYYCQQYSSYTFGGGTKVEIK | 0.68
BG87P-m1 (antibody, V domains shown, PTM removal variant of chBG87P) VH: QIQLQQSGPELVKPGASVKISCKASGYSFTDYHINWVKQRPGQGLEWIGWIYPGSGYTKYNEKFKVKATLTVDTSSSTAYMHLTSLTSEDSAVYFCARSGIYHYVSSYYFEHWGQGTTLTVSS VL: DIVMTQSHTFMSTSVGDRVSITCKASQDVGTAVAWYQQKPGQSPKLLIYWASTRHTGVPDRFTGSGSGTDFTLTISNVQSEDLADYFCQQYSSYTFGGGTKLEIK | 1.08
BG87P-Bz7 (antibody, V domains shown, also called BG87P-B27) VH: QIQLVQSGAEVKKPGASVKVSCKASGYSFTDYHINWVRQAPGQRLEWMGWIYPGSGYTKYNEKFKVRVTLTVDTSASTAYMELSSLRSEDTAVYFCARSGIYHYVSSYYFDHWGKGTTVTVSS VL: DIQMTQSPSTLSASVGDRVTITCKASQDVGTAVAWYQQKPGKSPKLLIYWASTRHTGVPSRFSGSGSGTEFTLTISSLQPDDFATYFCQQYSSYTFGGGTKVEIK | 0.81
BG87P-Bz0 (antibody, V domains shown, Humanized, all back mutations; also called BG87P-B20; BG87-Bz0) VH: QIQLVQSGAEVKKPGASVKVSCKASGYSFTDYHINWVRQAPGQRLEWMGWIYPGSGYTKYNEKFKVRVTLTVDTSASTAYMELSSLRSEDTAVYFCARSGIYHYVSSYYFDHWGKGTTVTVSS VL: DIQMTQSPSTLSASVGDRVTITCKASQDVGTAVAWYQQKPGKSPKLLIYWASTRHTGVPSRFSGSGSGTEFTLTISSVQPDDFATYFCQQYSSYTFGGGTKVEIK | 0.56
